ASSAY DETAILS: NCI Yeast Anticancer Drug Screen. Data for the mec2-1 strain (AID 157)
EXPERIMENTAL CONDITIONS: S. cerevisiae mec2-1 strain, at 50.0 µM (retest, dose inferred, filed as 5.0)
Compounds without any hit were thinned out: in the full panel of roughly 79,000, 15% have a hit. The source made the active and inactive calls. Cut-off read from the data, not from the text of the source: active = growth inhibition above about 70%; inactive = the rest.
Returns: one label drawn from yes (active), no (inactive)

Past entries and their recorded results:
{"COMPOUND": "COC(=O)Cn1/c(=N\\N=C(/C)c2ccc(C)cc2)sc2ccccc21", "GROUP": "no"}
{"COMPOUND": "CCCC/C=C(/CCCCOCOCCOC)[Si](C)(C)C", "GROUP": "no"}
{"COMPOUND": "Oc1c(C(O)(c2ccccc2)c2ccc3ccccc3c2O)ccc2ccccc12", "GROUP": "yes"}
{"COMPOUND": "CC[C@@]1(OP(=O)(O)O)C(=O)OCc2c1cc1n(c2=O)Cc2cc3ccccc3nc2-1", "GROUP": "yes"}
{"COMPOUND": "COc1ccc(C2SCC(=O)N2c2ccc(-c3ccc(-n4c(-c5ccccc5)nc5ccccc5c4=O)cc3)cc2)cc1 (centres undefined)", "GROUP": "no"}
{"COMPOUND": "Nc1c2c(=O)[nH]c(=O)c2c(N)c2c(=O)c3ccccc3c(=O)c12", "GROUP": "no"}
{"COMPOUND": "O=C1C/C(=C\\c2ccccc2)C(=O)c2ccccc2N1", "GROUP": "no"}
{"COMPOUND": "CCCCCN(CCCCC)C(=S)Nc1ccccc1", "GROUP": "yes"}
{"COMPOUND": "Cc1ccc(S(=O)(=O)NCCSSCCNS(=O)(=O)c2ccc(C)cc2)cc1", "GROUP": "yes"}
{"COMPOUND": "C=C(Br)CN1CCC2(c3ccccc3)C(O)C([Se]c3ccccc3)CCC12 (centres undefined)", "GROUP": "yes"}

Input line: What did the test return for CCOc1c(N=Nc2ccccc2OC)c(-c2ccccc2)nn1C(N)=S ?
Output line: no
